biological target: Sterol 14-alpha demethylase (Trypanosoma cruzi (strain CL Brener)); assay: Binding affinity to Trypanosoma cruzi CYP51 by UV-vis spectrophotometry
Sequence (Q7Z1V1 whole entry): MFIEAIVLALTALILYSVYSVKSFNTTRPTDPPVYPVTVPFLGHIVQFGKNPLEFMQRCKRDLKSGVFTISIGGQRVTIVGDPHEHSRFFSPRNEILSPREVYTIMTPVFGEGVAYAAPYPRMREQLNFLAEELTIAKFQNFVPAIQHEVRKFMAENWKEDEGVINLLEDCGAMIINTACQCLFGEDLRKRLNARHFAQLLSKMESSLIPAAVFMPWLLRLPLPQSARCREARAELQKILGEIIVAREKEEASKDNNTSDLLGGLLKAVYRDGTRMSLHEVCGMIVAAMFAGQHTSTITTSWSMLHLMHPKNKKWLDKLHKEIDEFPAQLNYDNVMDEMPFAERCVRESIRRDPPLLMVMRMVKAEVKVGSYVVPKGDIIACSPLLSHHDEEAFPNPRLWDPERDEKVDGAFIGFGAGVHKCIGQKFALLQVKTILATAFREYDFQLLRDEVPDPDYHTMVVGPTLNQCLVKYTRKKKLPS
experimental endpoint: pKd
// returns pKd (minus log10 of molar concentration), number only

Asked: Retrieve pKd on Sterol 14-alpha demethylase (Trypanosoma cruzi (strain CL Brener)); query Clc1ccc(-c2cc(C(c3ccc(Cl)cc3)n3ccnc3)c[nH]2)cc1 (stereo unspecified)
Given back: 5.26

###

# selectivity ratio per entry
assay: Selectivity index, ratio of CC50 for rat L6 cels to IC50 for Trypanosoma brucei rhodesiense STIB900 trypomastigotes; format: toxicity; conditions: L6 cells, read-out: Ratio IC50
// return just the number, without any unit appended

Below: 4 molecules and their reported selectivity ratio.
{"molecule": "N#Cc1ccc(C(c2ccn(-c3ccc(C#N)cc3)c2)n2ccnc2)cc1 (stereo not given)", "selectivity ratio": 5}
{"molecule": "O=[N+]([O-])c1ccc(-n2ccc(C(c3ccccc3)n3ccnc3)c2)cc1 (stereo not given)", "selectivity ratio": 4}
{"molecule": "O=[N+]([O-])c1ccc(-n2ccc(C(c3ccc(Cl)cc3)n3ccnc3)c2)cc1 (stereo not given)", "selectivity ratio": 2}
{"molecule": "CS(=O)(=O)c1ccc(-c2c[nH]cc2C(c2ccc(Cl)cc2Cl)n2ccnc2)cc1 (stereo not given)", "selectivity ratio": 2}

Please turn your attention to the following entry.
Asked: For the molecule FC(F)(F)c1ccc(-n2ccc(C(c3ccc(Cl)cc3)n3ccnc3)c2)cc1 (stereo not given) , give its reported selectivity ratio.
Given back: 1
